Recorded IC50, one value per entry.
measured on: HLA-B*15:01
procedure summary: IEDB peptide-MHC binding, purified MHC/competitive/fluorescence; bounds were set here for any values at or beyond the usual limits of such assays
run parameters: source organism: Vaccinia virus WR
Numeric only. Scale: µM

[
  {
    "record sequence": "FMHEQGYSH",
    "IC50 (µM)": 14.8
  }
]

--- query ---
**Query** Give me measured IC50, please, for this sequence: `ITCKAFGLY`
**Result** 14

###

measured on: HLA-B*15:42
procedure summary: IEDB peptide-MHC binding, purified MHC/competitive/fluorescence; filed as Kd, often an IC50 or EC50 that approximates it; bounds were set here for any values at or beyond the usual limits of such assays
run parameters: source organism: Giardia lamblia ATCC 50803
pKd: −log10 of the molar value.
observation type: pKd

[
  {
    "record sequence": "MTDVDLNYY",
    "observation type": "pKd",
    "value reported": "≤ 5.30"
  }
]

--- query ---
**Query** Give me measured pKd, please, for this sequence: `YMRERFEPM`
**Result** ≤ 5.30
